Assign pIC50 to each entry below.
Sequence of the target: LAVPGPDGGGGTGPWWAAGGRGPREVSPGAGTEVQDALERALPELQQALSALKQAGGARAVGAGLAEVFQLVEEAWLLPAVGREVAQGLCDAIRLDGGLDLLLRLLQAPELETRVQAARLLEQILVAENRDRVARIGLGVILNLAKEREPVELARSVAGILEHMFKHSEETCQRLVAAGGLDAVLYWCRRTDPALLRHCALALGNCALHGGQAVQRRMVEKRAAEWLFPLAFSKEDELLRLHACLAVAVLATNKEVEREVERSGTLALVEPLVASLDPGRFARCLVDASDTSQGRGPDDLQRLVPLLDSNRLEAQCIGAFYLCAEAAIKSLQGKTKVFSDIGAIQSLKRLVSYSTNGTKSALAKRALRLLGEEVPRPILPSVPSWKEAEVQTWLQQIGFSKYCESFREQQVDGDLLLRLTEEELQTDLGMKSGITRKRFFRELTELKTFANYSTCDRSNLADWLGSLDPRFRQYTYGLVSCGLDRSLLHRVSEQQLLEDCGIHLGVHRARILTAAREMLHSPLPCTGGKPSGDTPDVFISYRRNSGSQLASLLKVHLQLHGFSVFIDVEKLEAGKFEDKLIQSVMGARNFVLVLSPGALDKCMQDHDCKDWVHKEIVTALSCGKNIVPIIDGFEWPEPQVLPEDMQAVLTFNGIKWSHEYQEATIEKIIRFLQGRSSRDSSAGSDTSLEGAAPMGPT
pIC50: −log10 of the molar value.

Prompt: // query pIC50 value for entry O=C1CCCN1c1ccc2ncc(-c3cccc4[nH]ccc34)n2c1 [Compound 205]
Response: 5.00 to 6.00

Prompt: // query pIC50 value for entry CC(C)(C)OC(=O)Nc1ccc2ncc(-c3cccc(NC(=O)COCCOCc4ccccc4)c3)n2c1 [Compound 240]
Response: > 6.00

Prompt: // query pIC50 value for entry CNc1ccc2ncc(-c3cccc(CNC(=O)C4CCOCC4)c3)n2c1 [Compound 242]
Response: > 6.00

Prompt: // query pIC50 value for entry CNc1ccc2ncc(-c3cccc(NC(=O)COCCOC)c3)n2c1 [Compound 77]
Response: 5.00 to 6.00

Prompt: // query pIC50 value for entry CN(C(=O)OC(C)(C)C)c1ccc2ncc(-c3ccc(NC(=O)c4ccccc4)s3)n2c1 [Compound 181]
Response: 5.00 to 6.00

Prompt: // query pIC50 value for entry CN(C(=O)OC(C)(C)C)c1ccc2ncc(-c3ccccn3)n2c1 [Compound 18]
Response: 5.00 to 6.00

Prompt: // query pIC50 value for entry COCCOCC(=O)Nc1ccc(-c2cnc3ccc(N(C)C(=O)OC(C)(C)C)cn23)cc1 [Compound 50]
Response: 5.00 to 6.00

Prompt: // query pIC50 value for entry CN(C(=O)C(C)(C)C)c1ccc2ncc(-c3cccc(N)c3)n2c1 [Compound 302]
Response: 5.00 to 6.00

Prompt: // query pIC50 value for entry CNc1ccc2ncc(-c3cccc4c3CNC4=O)n2c1 [Compound 257]
Response: > 6.00

Prompt: // query pIC50 value for entry CN(C(=O)OC(C)(C)C)c1ccc2ncc(-c3cccc(NC(=O)COCc4ccccc4)c3)n2c1 [Compound 248]
Response: 5.00 to 6.00

Prompt: // query pIC50 value for entry CN(C(=O)OC(C)(C)C)c1ccc2ncc(-c3cccc(C(=O)NC[C@@H]4CCO4)c3)n2c1 [Compound 246]
Response: 5.00 to 6.00

Prompt: // query pIC50 value for entry CN(C(=O)OC(C)(C)C)c1ccc2ncc(-c3cccc4c3CNC4=O)n2c1 [Compound 256]
Response: > 6.00

Prompt: // query pIC50 value for entry CNc1ccc2ncc(-c3cccc4c3CC(=O)N4)n2c1 [Compound 298]
Response: 5.00 to 6.00

Prompt: // query pIC50 value for entry CN(C(=O)OC(C)(C)C)c1ccc2ncc(-c3cccc(C(N)=O)c3)n2c1 [Compound 7]
Response: 5.00 to 6.00

Prompt: // query pIC50 value for entry CN(C(=O)OC(C)(C)C)c1ccc2ncc(-c3ccc4[nH]ccc4c3)n2c1 [Compound 199]
Response: 5.00 to 6.00

Prompt: // query pIC50 value for entry CN(C(=O)OC(C)(C)C)c1ccc2ncc(-c3ccc(N)cc3)n2c1 [Compound 40]
Response: 5.00 to 6.00

Prompt: // query pIC50 value for entry CN(C(=O)OC(C)(C)C)c1ccc2ncc(-c3cccc(NC(=O)[C@H]4CCOC4)c3)n2c1 [Compound 239]
Response: > 6.00
